Experiment: Cellular viability qHTS for adrenocortical cancer (ACC) cell line NCI-H295R (AID 1963990); further: nearly all actives have a fitted effect of over 60% in size; further: potency means the concentration at half of the fitted maximal effect
Conditions: CellTiter-Glo ATP luminescence, 48 h; series mostly up to 46.1 µM
Results filed as inconclusive are left out. Active and inactive are the calls of the source. The call rests on the fitted dose curve; in most records, active means well fitted cell-killing curve with a large enough effect; inconclusive means small, poorly fitted or top-dose-only effect; inactive means flat fitted curve, though single readings scatter.
result-type: Potency

[[record]]
input_smiles = "CCCc1ccc(OCC(=O)N2CCN(C(=O)COc3ccc(CCC)cc3OC)CC2)c(OC)c1"
recorded_value = "inactive"

[[record]]
input_smiles = "CC(C)[C@](O)(c1ccc2cc(OC(F)F)c(OC(F)F)cc2c1)c1cn[nH]n1"
recorded_value = "25.1 µM (active)"

[[record]]
input_smiles = "C=CC(=O)Nc1cccc(Oc2nc(Nc3ccc(N4CCN(C)CC4)cc3)ncc2Cl)c1"
recorded_value = "2.51 µM (active)"

[[record]]
input_smiles = "CCN1CCN(C(=O)N[C@@H](C(=O)N[C@@H]2C(=O)N3[C@@H]2SC(C)(C)[C@H]3C(=O)O)c2ccccc2)C(=O)C1=O"
recorded_value = "inactive"


Next compound, Potency to be filled in.
Form field: reported Potency of `C/C=C/C=N/NC(=O)c1ccncc1`
inactive
